# ASSAY_NAME: Solubility in water by HPLC/UV analysis
# Format: physicochemical
OBSERVABLE: solubility (µg/mL)

>>> observed("CC(C(=O)O)c1ccc(C[SiH](C)C)cc1 (stereo unspecified)")
83

Origin of values: ChEMBL document CHEMBL4665811
